- System: HCT116 cells, pERK
- experiment.notes: Inhibition of KRas phosphorylation of ERK (Cisbio HTRF Advanced pERK assay)
- Assay type: cell-based
- assay.conditions: Homo sapiens, HCT-116, 3 hrs, read-out: Inhibition (HTRF IC50 nM) of KRas-mediated Phosphorylation of ERK, HCT116
observed.property: log10(IC50) (log10 of the value in nM)
Quick note: numbers are log10 of IC50, with nM as the unit.

// below: answered compounds
CCc1c(F)ccc2cc(O)cc(N3CCc4c(nc(OC[C@@]56CCCN5C[C@H](F)C6)nc4N4CCC[C@@](C)(O)C4)C3)c12 = 2.63
CCc1c(F)ccc2cc(O)cc(N3CCc4c(nc(OC[C@@]56CCCN5C[C@H](F)C6)nc4N4CCOCC(O)C4)C3)c12 (stereo partly drawn) = 3.12
CCc1c(F)ccc2cc(O)cc(N3CCc4c(nc(OC[C@@]56CCCN5C[C@H](F)C6)nc4N4CC5C(=O)NC(=O)C5C4)C3)c12 (stereo partly drawn) = 2.17
CCc1c(F)ccc2cc(O)cc(N3CCc4c(nc(OC[C@@]56CCCN5C[C@H](F)C6)nc4N4CCOCC(n5cccn5)C4)C3)c12 (stereo partly drawn) = 2.72
CCc1c(F)ccc2cc(O)cc(N3CCc4c(nc(OC[C@@]56CCCN5C[C@H](F)C6)nc4N4CCCC5(C4)NC(=O)NC5=O)C3)c12 (stereo partly drawn) = 1.20

Next compound, please.
Query (compound): CCc1c(F)ccc2cc(O)cc(N3CCc4c(nc(OC[C@@]56CCCN5C[C@H](F)C6)nc4N4CCCC(O)CC4)C3)c12 (stereo partly drawn) ; field requested: log10(IC50)
2.68

Sourced from patent US12421253B2
